- ASSAY TARGET: muscarinic receptors (cerebral cortex)
- METHOD DESCRIPTION: Muscarinic receptor binding, cerebral cortex (displacement of 3H-N-methylscopolamine)
- TEST CONDITIONS: cerebral cortex homogenate; 0.3 nanomolar 3H-NMS; 30 C; 45 minutes; pH 7.4; read-out: Receptor Binding Tests IC50, Cortex
pIC50: −log10 of the molar value. Where a name gives a salt, the structure may show the parent alone.
The entries below are paired with their reported pIC50.

COMPOUND: CCN(CCC1CCCN1C)CC(=O)N1c2cc(Cl)ccc2C(=O)Nc2cccnc21 (centres unmarked)
pIC50: 7.15

COMPOUND: CN(CCC1CCCN1C)CC(=O)N1c2ccccc2NC(=O)c2ccccc21 (centres unmarked) [Substance C, hydrochloride]
pIC50: 8.10

====

# pIC50 values compiled below
- ASSAY TARGET: muscarinic receptors (submandibular gland) (Rattus norvegicus, UniProt P08483)
- Sequence (P08483 whole entry): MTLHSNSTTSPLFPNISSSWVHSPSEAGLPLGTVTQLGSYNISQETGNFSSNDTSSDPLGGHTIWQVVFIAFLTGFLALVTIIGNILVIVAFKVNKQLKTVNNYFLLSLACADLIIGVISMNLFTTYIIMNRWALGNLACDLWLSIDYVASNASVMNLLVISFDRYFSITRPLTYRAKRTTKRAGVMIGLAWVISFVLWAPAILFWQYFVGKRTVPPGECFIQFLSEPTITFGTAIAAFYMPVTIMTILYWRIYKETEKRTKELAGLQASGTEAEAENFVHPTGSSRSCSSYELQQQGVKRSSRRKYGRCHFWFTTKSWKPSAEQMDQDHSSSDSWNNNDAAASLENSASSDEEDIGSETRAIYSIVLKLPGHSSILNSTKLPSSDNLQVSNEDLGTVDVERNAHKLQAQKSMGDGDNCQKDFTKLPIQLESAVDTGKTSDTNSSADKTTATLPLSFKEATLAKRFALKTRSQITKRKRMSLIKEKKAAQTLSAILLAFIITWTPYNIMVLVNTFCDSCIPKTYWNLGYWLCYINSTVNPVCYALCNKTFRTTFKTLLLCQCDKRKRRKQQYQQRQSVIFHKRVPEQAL
pIC50: −log10 of the molar value. Structures can show the parent of a compound that is named as a salt.
READOUT: pIC50

COMPOUND: CN(CCC1CCCN1C)CC(=O)N1c2ccccc2C(=O)Nc2cccnc21 (centres unmarked) [Substance A, hydrochloride]
OBSERVED RESULT: 7.10

COMPOUND: CN(CCC1CCCN1C)CC(=O)N1c2ccccc2NC(=O)c2ccccc21 (centres unmarked) [Substance C, hydrochloride]
OBSERVED RESULT: 7.70

====

- ASSAY TARGET: muscarinic receptors (heart) (Rattus norvegicus)
- Sequence (P10980 whole entry): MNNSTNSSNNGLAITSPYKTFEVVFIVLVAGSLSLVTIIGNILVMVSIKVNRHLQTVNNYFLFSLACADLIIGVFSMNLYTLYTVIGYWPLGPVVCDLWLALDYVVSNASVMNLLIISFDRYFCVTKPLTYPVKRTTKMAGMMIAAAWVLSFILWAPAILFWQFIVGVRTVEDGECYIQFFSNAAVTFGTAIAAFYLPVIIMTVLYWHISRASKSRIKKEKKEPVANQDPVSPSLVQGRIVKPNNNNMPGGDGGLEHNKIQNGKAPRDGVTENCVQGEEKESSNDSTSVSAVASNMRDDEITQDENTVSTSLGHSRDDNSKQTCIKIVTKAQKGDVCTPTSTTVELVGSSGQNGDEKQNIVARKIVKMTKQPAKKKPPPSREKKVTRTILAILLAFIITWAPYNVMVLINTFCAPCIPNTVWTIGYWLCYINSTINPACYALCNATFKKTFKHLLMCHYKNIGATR
- METHOD DESCRIPTION: biochemical
- TEST CONDITIONS: whole heart homogenate; 0.3 nanomolar 3H-NMS; 30 C; 45 minutes; pH 7.4; read-out: Receptor Binding Tests IC50, Heart
Where a name gives a salt, the structure may show the parent alone.
READOUT: IC50 (nM)

COMPOUND: CCN(CCC1CCCN1C)CC(=O)N1c2cc(Cl)ccc2C(=O)Nc2cccnc21 (stereo not drawn) [Substance B]
ASSAY TARGET: muscarinic receptors (heart) (Rattus norvegicus)
OBSERVED RESULT: 10
--
COMPOUND: CN(CCC1CCCN1C)CC(=O)N1c2ccccc2C(=O)Nc2cccnc21 (stereo not drawn) [Substance A, hydrochloride]
ASSAY TARGET: muscarinic receptors (heart) (Rattus norvegicus)
OBSERVED RESULT: 9
--
COMPOUND: CN(CCC1CCCN1C)CC(=O)N1c2ccccc2NC(=O)c2ccccc21 (stereo not drawn) [Substance C, hydrochloride]
ASSAY TARGET: muscarinic receptors (heart) (Rattus norvegicus)
OBSERVED RESULT: 3

Origin of measurements: patent US5002943A
